Source: ChEMBL document CHEMBL2016457

assayExplanation: Cmax in Sprague-Dawley rat at 10 mg/kg, po
Format: ADME, organism-based
Design: dose 10 mg/kg, route oral
testConditions: in vivo

compoundSmiles	Cmax (ng/mL)
COc1ccc(N2C(=O)/C(=C/c3cc(Cl)c(O)c(Cl)c3)OC2=S)cc1	400

###

targetDesc: 17-beta-hydroxysteroid dehydrogenase type 1 (Homo sapiens)
assayExplanation: Inhibition of human recombinant 17-beta-HSD1 expressed in human HeLa cells using estrone as substrate preincubated for 30 mins prior substrate addition measured after 120 mins by spectrophotometry
Format: cell-based
Active and inactive are the calls of the source. No rule for the calls is given here.

compoundSmiles	targetDesc	inhibition
CN1C(=O)/C(=C/c2ccc(O)c(Br)c2)SC1=S	17-beta-hydroxysteroid dehydrogenase type 1 (Homo sapiens)	inactive
COc1ccc(N2C(=O)/C(=C/c3cc(Cl)c(O)c(Cl)c3)OC2=S)cc1	17-beta-hydroxysteroid dehydrogenase type 1 (Homo sapiens)	inactive
N#Cc1ccc(N2C(=O)/C(=C/c3ccc(O)c(Br)c3)OC2=S)cc1	17-beta-hydroxysteroid dehydrogenase type 1 (Homo sapiens)	inactive
COc1ccc(CN2C(=O)/C(=C/c3ccc(O)c(Br)c3)SC2=S)cc1	17-beta-hydroxysteroid dehydrogenase type 1 (Homo sapiens)	inactive
COc1ccc(N2C(=O)/C(=C/c3ccc(O)c(Cl)c3)OC2=S)cc1	17-beta-hydroxysteroid dehydrogenase type 1 (Homo sapiens)	inactive
COc1ccc(N2C(=O)/C(=C/c3ccc(O)cc3)OC2=S)cc1	17-beta-hydroxysteroid dehydrogenase type 1 (Homo sapiens)	inactive
O=C1/C(=C/c2ccc(O)c(Br)c2)OC(=S)N1c1ccc(C(F)(F)F)cc1	17-beta-hydroxysteroid dehydrogenase type 1 (Homo sapiens)	inactive
COc1ccc(N2C(=O)/C(=C/c3ccc(O)c(C)c3)OC2=S)cc1	17-beta-hydroxysteroid dehydrogenase type 1 (Homo sapiens)	inactive
COc1ccc(N2C(=O)O/C(=C\c3ccc(O)c(Br)c3)C2=O)cn1	17-beta-hydroxysteroid dehydrogenase type 1 (Homo sapiens)	inactive
COc1ccc(N2C(=O)/C(=C/c3cc(Cl)c(OP(=O)(O)O)c(Cl)c3)OC2=S)cc1	17-beta-hydroxysteroid dehydrogenase type 1 (Homo sapiens)	inactive
COCCN1C(=O)/C(=C/c2ccc(O)c(Br)c2)SC1=S	17-beta-hydroxysteroid dehydrogenase type 1 (Homo sapiens)	inactive
O=C1O/C(=C\c2ccc(O)c(Br)c2)C(=O)N1c1ccccn1	17-beta-hydroxysteroid dehydrogenase type 1 (Homo sapiens)	inactive
O=C1O/C(=C\c2ccc(O)c(Br)c2)C(=O)N1c1ccc(Cl)nc1	17-beta-hydroxysteroid dehydrogenase type 1 (Homo sapiens)	inactive
O=C(Nc1ccc(N2C(=O)O/C(=C\c3ccc(O)c(Br)c3)C2=O)cc1)C1CCCCC1	17-beta-hydroxysteroid dehydrogenase type 1 (Homo sapiens)	inactive
C#CCN1C(=O)/C(=C/c2ccc(O)c(Br)c2)SC1=S	17-beta-hydroxysteroid dehydrogenase type 1 (Homo sapiens)	inactive
O=C1O/C(=C\c2ccc(O)c(Br)c2)C(=O)N1c1cccnc1	17-beta-hydroxysteroid dehydrogenase type 1 (Homo sapiens)	inactive
COc1ccc(N2C(=O)/C(=C/c3ccc(O)c(Br)c3)OC2=S)cc1	17-beta-hydroxysteroid dehydrogenase type 1 (Homo sapiens)	inactive
Cc1ccc(N2C(=O)O/C(=C\c3ccc(O)c(Br)c3)C2=O)cn1	17-beta-hydroxysteroid dehydrogenase type 1 (Homo sapiens)	inactive
COc1ccc(N2C(=O)/C(=C(/c3ccc(O)c(Br)c3)C(F)(F)F)SC2=S)cc1	17-beta-hydroxysteroid dehydrogenase type 1 (Homo sapiens)	inactive
COc1ccc(N2C(=O)/C(=C(/C)c3ccc(O)c(Br)c3)SC2=S)cc1	17-beta-hydroxysteroid dehydrogenase type 1 (Homo sapiens)	inactive
COc1ccc(N2C(=O)/C(=C/c3ccc(O)cc3Cl)OC2=S)cc1	17-beta-hydroxysteroid dehydrogenase type 1 (Homo sapiens)	inactive
CS(=O)(=O)c1ccc(N2C(=O)O/C(=C\c3ccc(O)c(Br)c3)C2=O)cc1	17-beta-hydroxysteroid dehydrogenase type 1 (Homo sapiens)	inactive
CNC(=O)c1ccc(N2C(=O)O/C(=C\c3ccc(O)c(Br)c3)C2=O)cc1	17-beta-hydroxysteroid dehydrogenase type 1 (Homo sapiens)	inactive
NS(=O)(=O)c1ccc(N2C(=O)O/C(=C\c3ccc(O)c(Br)c3)C2=O)cc1	17-beta-hydroxysteroid dehydrogenase type 1 (Homo sapiens)	inactive
COc1ccc(N2C(=O)O/C(=C\c3cc(Cl)c(O)c(Cl)c3)C2=O)cc1	17-beta-hydroxysteroid dehydrogenase type 1 (Homo sapiens)	inactive
COC(=O)c1ccc(N2C(=O)O/C(=C\c3ccc(O)c(Br)c3)C2=O)cc1	17-beta-hydroxysteroid dehydrogenase type 1 (Homo sapiens)	inactive

###

targetDesc: Glucocorticoid receptor (Homo sapiens)
assayExplanation: Agonist activity at human Glucocorticoid receptor expressed in human HeLa cells assessed as DHT-induced response after 40 hrs by luciferase/beta-galactosidase-based reporter gene assay
Assay type: functional, cell-based
Activity calls are given as the source filed them. How the calls were made is not given here.

compoundSmiles	Activity
N#Cc1ccc(N2C(=O)/C(=C/c3ccc(O)c(Br)c3)OC2=S)cc1	inactive
O=C(O)c1ccc(N2C(=O)O/C(=C\c3ccc(O)c(Br)c3)C2=O)cc1	inactive
CN(C)c1ccc(N2C(=O)O/C(=C\c3ccc(O)c(Br)c3)C2=O)cc1	inactive
O=C1/C(=C/c2ccc(O)c(Br)c2)OC(=S)N1c1ccc(Cl)cc1	inactive
O=C1O/C(=C\c2ccc(O)c(Br)c2)C(=O)N1c1ccccn1	inactive

###

assayExplanation: Tmax in Sprague-Dawley rat at 10 mg/kg, po
Format: ADME, organism-based
Design: dose 10 mg/kg, route oral
testConditions: in vivo
reportedMetric: Tmax (h)

compoundSmiles	reportedMetric	resultUnit	testResult
COc1ccc(N2C(=O)/C(=C/c3cc(Cl)c(O)c(Cl)c3)OC2=S)cc1	Tmax	h	1

###

targetDesc: 17-beta-hydroxysteroid dehydrogenase type 2 (Homo sapiens)
assayExplanation: Inhibition of human recombinant 17-beta-HSD2 expressed in human HeLa cells using estradiol as substrate preincubated for 30 mins prior substrate addition measured after 120 mins by spectrophotometry
Type: cell-based
The source made the active and inactive calls. How the calls were made is not given here.

compoundSmiles	targetDesc	inhibition
COc1ccc(N2C(=O)/C(=C/c3cc(F)c(O)c(Cl)c3)OC2=S)cc1	17-beta-hydroxysteroid dehydrogenase type 2 (Homo sapiens)	inactive
CN(C)c1ccc(N2C(=O)O/C(=C\c3ccc(O)c(Br)c3)C2=O)cc1	17-beta-hydroxysteroid dehydrogenase type 2 (Homo sapiens)	inactive
O=C1/C(=C/c2ccc(O)c(Br)c2)OC(=S)N1c1ccc(C(F)(F)F)cc1	17-beta-hydroxysteroid dehydrogenase type 2 (Homo sapiens)	inactive
Cc1ccc(N2C(=O)/C(=C/c3ccc(O)c(Br)c3)OC2=S)cc1	17-beta-hydroxysteroid dehydrogenase type 2 (Homo sapiens)	inactive
COc1ccc(N2C(=O)/C(=C/c3ccc(O)c(Br)n3)OC2=S)cc1	17-beta-hydroxysteroid dehydrogenase type 2 (Homo sapiens)	inactive

###

Form: system (17-beta-hydroxysteroid dehydrogenase type 3 (Homo sapiens)), quantity (pIC50), values below.
pIC50: −log10 of the molar value.
reportedMetric: pIC50

compoundSmiles	targetDesc	testResult
COc1ccc(N2C(=O)/C(=C/c3ccc(O)cc3Cl)OC2=S)cc1	17-beta-hydroxysteroid dehydrogenase type 3 (Homo sapiens)	8.30
CS(=O)(=O)c1ccc(N2C(=O)O/C(=C\c3ccc(O)c(Br)c3)C2=O)cc1	17-beta-hydroxysteroid dehydrogenase type 3 (Homo sapiens)	6.05
COc1ccc(N2C(=O)/C(=C/c3ccc(O)c(C)c3)OC2=S)cc1	17-beta-hydroxysteroid dehydrogenase type 3 (Homo sapiens)	7.70
O=C1/C(=C/c2ccc(O)c(Br)c2)OC(=S)N1c1ccc(F)cc1	17-beta-hydroxysteroid dehydrogenase type 3 (Homo sapiens)	8.70
O=C1O/C(=C\c2ccc(O)c(Br)c2)C(=O)N1c1ccc(Cl)nc1	17-beta-hydroxysteroid dehydrogenase type 3 (Homo sapiens)	7.70
O=C1/C(=C/c2ccc(O)c(Br)c2)SC(=S)N1C1CCOCC1	17-beta-hydroxysteroid dehydrogenase type 3 (Homo sapiens)	7.12
Cc1ccc(N2C(=O)O/C(=C\c3ccc(O)c(Br)c3)C2=O)cn1	17-beta-hydroxysteroid dehydrogenase type 3 (Homo sapiens)	7.17
O=C1/C(=C/c2ccc(O)c(Br)c2)OC(=S)N1c1ccc(C(F)(F)F)cc1	17-beta-hydroxysteroid dehydrogenase type 3 (Homo sapiens)	8.52
COCCN1C(=O)/C(=C/c2ccc(O)c(Br)c2)SC1=S	17-beta-hydroxysteroid dehydrogenase type 3 (Homo sapiens)	6.72
COc1ccc(N2C(=O)/C(=C/c3cc(F)c(O)c(Cl)c3)OC2=S)cc1	17-beta-hydroxysteroid dehydrogenase type 3 (Homo sapiens)	9.00

###

targetDesc: Glucocorticoid receptor (Homo sapiens)
assayExplanation: Agonist activity at human Glucocorticoid receptor expressed in human HeLa cells assessed as DHT-induced response after 40 hrs by luciferase/beta-galactosidase-based reporter gene assay
Format: functional, cell-based
Active and inactive are the calls of the source. How the calls were made is not given here.

compoundSmiles	Activity
O=C1O/C(=C\c2ccc(O)c(Br)c2)C(=O)N1c1ccc(Cl)nc1	inactive
O=C1NC(=S)S/C1=C\c1ccc(O)c(Br)c1	inactive
O=C1/C(=C/c2ccc(O)c(Br)c2)OC(=S)N1c1ccccc1	inactive
COc1ccc(CN2C(=O)/C(=C/c3ccc(O)c(Br)c3)SC2=S)cc1	inactive
COc1ccc(N2C(=O)/C(=C/c3cc(F)c(O)c(Cl)c3)OC2=S)cc1	inactive
Cc1ccc(N2C(=O)O/C(=C\c3ccc(O)c(Br)c3)C2=O)cn1	inactive

###

targetDesc: 17-beta-hydroxysteroid dehydrogenase type 3 (Homo sapiens, UniProt P37058)
Sequence (P37058 whole entry): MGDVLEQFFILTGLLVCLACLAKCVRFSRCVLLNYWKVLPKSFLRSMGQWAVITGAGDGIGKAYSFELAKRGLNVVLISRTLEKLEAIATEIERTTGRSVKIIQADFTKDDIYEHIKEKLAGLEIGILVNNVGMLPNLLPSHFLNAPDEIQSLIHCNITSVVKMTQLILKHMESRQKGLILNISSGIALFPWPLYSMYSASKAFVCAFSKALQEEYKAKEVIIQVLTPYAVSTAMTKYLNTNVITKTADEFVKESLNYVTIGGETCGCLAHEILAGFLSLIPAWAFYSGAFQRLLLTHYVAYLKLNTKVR
pIC50: −log10 of the molar value.
Use 8 as the dividing line for pIC50, with the line itself on the class 1 side and lower values as class 0.

compound	classification
CSc1ccc(N2C(=O)O/C(=C\c3ccc(O)c(Br)c3)C2=O)cc1	class 0
O=C1O/C(=C\c2ccc(O)c(Br)c2)C(=O)N1c1ccc(F)nc1	class 0
COc1ccc(CN2C(=O)/C(=C/c3ccc(O)c(Br)c3)SC2=S)cc1	class 0
CN(C)C(=O)c1ccc(N2C(=O)O/C(=C\c3ccc(O)c(Br)c3)C2=O)cc1	class 0
Cc1ccc(N2C(=O)/C(=C/c3ccc(O)c(Br)c3)OC2=S)cc1	class 1
COc1ccc(N2C(=O)/C(=C/c3ccc(O)c(Cl)c3)OC2=S)cc1	class 1
CNC(=O)c1ccc(N2C(=O)O/C(=C\c3ccc(O)c(Br)c3)C2=O)cc1	class 0
O=C(c1ccc(N2C(=O)O/C(=C\c3ccc(O)c(Br)c3)C2=O)cc1)N1CCOCC1	class 0
COc1ccc(N2C(=O)O/C(=C\c3ccc(O)c(Br)c3)C2=O)cn1	class 1
CC(=O)Nc1ccc(N2C(=O)O/C(=C\c3ccc(O)c(Br)c3)C2=O)cc1	class 0
O=C(Nc1ccc(N2C(=O)O/C(=C\c3ccc(O)c(Br)c3)C2=O)cc1)C1CCCCC1	class 0
C=CCN1C(=O)/C(=C/c2ccc(O)c(Br)c2)SC1=S	class 0
CN(C)c1ccc(N2C(=O)O/C(=C\c3ccc(O)c(Br)c3)C2=O)cc1	class 0
C#CCN1C(=O)/C(=C/c2ccc(O)c(Br)c2)SC1=S	class 0
O=C1O/C(=C\c2ccc(O)c(Br)c2)C(=O)N1c1cccnc1	class 0
COc1ccc(N2C(=O)/C(=C/c3ccc(O)c(F)c3)OC2=S)cc1	class 1
CN1C(=O)/C(=C/c2ccc(O)c(Br)c2)SC1=S	class 0
COc1ccc(N2C(=O)/C(=C/c3ccc(O)c(Br)n3)OC2=S)cc1	class 0
COc1ccc(N2C(=O)/C(=C(/C)c3ccc(O)c(Br)c3)SC2=S)cc1	class 0
O=C1/C(=C/c2ccc(O)c(Br)c2)SC(=S)N1C1CCCCC1	class 1
COC(=O)c1ccc(N2C(=O)O/C(=C\c3ccc(O)c(Br)c3)C2=O)cc1	class 0
N#Cc1ccc(N2C(=O)/C(=C/c3ccc(O)c(Br)c3)OC2=S)cc1	class 0
O=C1O/C(=C\c2ccc(O)c(Br)c2)C(=O)N1c1ccccn1	class 0
COc1ccc(N2C(=O)/C(=C/c3ccc(O)c(OC)c3)OC2=S)cc1	class 0
COc1ccc(N2C(=O)/C(=C/c3cc(F)c(O)c(F)c3)OC2=S)cc1	class 1
COc1ccccc1N1C(=O)/C(=C/c2ccc(O)c(Br)c2)OC1=S	class 0
COc1ccc(N2C(=O)/C(=C/c3ccc(O)cn3)OC2=S)cc1	class 0
CN(C)c1ccc(N2C(=O)O/C(=C\c3ccc(O)c(Br)c3)C2=O)cn1	class 1
COc1ccc(N2C(=O)/C(=C/c3ccc(O)cc3)OC2=S)cc1	class 0
COc1ccc(N2C(=O)C(Cc3ccc(O)c(Br)c3)SC2=S)cc1 (stereo not given)	class 0
